- System: Mycolicibacterium smegmatis MC2 155
- TEST DESCRIPTION: Inhibition of Multidrug resistance efflux pump in Mycobacterium smegmatis mc2 155 assessed as modulation of isoniazid-mediated antibacterial activity measuring ratio of isoniazid MIC to isoniazid and compound MIC at 64 mg/L after 72 hrs by MTT assay
MEASURED QUANTITY: Ratio
Reply briefly: the number, and no unit.

Report Ratio, nothing else, for this compound: "O=C1C[C@@H](c2ccccc2)Oc2cc(O)cc(O)c21"
1

Report measured Ratio; entry is "CCCCCCCCCCCCCCCCCC(=O)O"
0.5

Provide one value: measured Ratio of "O[C@@H](CCc1ccccc1)C[C@H](O)/C=C/c1ccccc1"
2

Using the record for "CCCCCCCCCCCCCCCC(=O)O" , state its measured Ratio.
0.5

Give the reported Ratio for this compound. "O=C(/C=C/C=C/c1ccccc1)CCc1ccccc1"
1

---

- Tested on: Mycolicibacterium smegmatis
- TEST DESCRIPTION: Antibacterial activity against Mycobacterium smegmatis mc2 155 after 72 hrs by MTT assay
- Type: functional
- ASSAY CONDITIONS: str. MC2 155, 72 h
MEASURED QUANTITY: MIC

Consider the molecule "CC[C@@H](CO)NCCN[C@@H](CC)CO" and give its recorded MIC.
1 µg/mL

Given "CCCCC/C=C\C/C=C\CCCCCCCC(=O)O" , respond with its MIC.
4 µg/mL

Query MIC for "O[C@@H](CCc1ccccc1)C[C@H](O)/C=C/c1ccccc1"
≥ 128 µg/mL

Respond only with MIC recorded for "O=C1C[C@@H](c2ccccc2)Oc2cc(O)cc(O)c21"
128 µg/mL

Report MIC for "O=C(/C=C/C=C/c1ccccc1)CCc1ccccc1"
≥ 128 µg/mL

Fill in MIC for record "O=C(CCc1ccccc1)C[C@@H](O)/C=C/c1ccccc1"
64 µg/mL

Note MIC for the molecule shown: "CO[C@H]1/C=C/O[C@@]2(C)Oc3c(C)c(O)c4c(O)c(c(/C=N/N5CCN(C)CC5)c(O)c4c3C2=O)NC(=O)/C(C)=C\C=C\[C@H](C)[C@H](O)[C@@H](C)[C@@H](O)[C@@H](C)[C@H](OC(C)=O)[C@@H]1C"
32 µg/mL

Hey, just so you know, these numbers are from ChEMBL document CHEMBL2021785.
